A collection of binders and their measured Ki
tested.system: T1, NHERF-1 PDZ1 (human, UniProt O14745)
T1 chain: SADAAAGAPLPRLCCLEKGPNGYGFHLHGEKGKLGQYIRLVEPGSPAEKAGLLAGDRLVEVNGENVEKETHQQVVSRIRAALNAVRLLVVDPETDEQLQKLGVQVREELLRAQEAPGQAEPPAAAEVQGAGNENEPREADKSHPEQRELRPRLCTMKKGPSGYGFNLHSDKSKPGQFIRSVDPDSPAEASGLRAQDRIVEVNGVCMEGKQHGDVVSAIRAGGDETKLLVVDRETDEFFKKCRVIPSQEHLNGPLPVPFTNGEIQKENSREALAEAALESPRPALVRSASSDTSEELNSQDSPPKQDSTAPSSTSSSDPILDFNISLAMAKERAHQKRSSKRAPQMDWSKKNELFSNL
assay.method.text: FP, competition
result.type: Ki (µM)

ANSRWQVTRV [ANSRWQVTRV (second entry)] ... 2.8
ANSRWQVTRV ... 2.8

Origin of the recorded values: patent US20180318382
